Sequence of the target: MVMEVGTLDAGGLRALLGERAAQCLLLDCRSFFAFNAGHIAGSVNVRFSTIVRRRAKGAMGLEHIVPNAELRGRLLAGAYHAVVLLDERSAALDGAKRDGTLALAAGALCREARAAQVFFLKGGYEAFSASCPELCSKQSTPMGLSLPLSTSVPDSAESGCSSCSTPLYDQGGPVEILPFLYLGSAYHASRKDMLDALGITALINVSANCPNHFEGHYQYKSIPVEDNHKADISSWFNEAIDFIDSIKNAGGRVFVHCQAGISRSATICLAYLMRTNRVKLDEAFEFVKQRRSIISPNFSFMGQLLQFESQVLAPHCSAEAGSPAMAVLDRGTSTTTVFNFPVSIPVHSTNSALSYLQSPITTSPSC
pIC50: −log10 of the molar value.
Literature survey of pIC50 (system: the protein given by its sequence).

| compound | assayTarget | relationOperator | pIC50 |
| --- | --- | --- | --- |
| Cc1c(N=c2c(=O)c3ccccc3c2=O)c(=O)n(-c2ccccc2)n1C | the protein given by its sequence | = | 4.58 |
| CN(C)/C=N/c1cc(=O)n(Cc2ccccc2)c(=O)n1C | the protein given by its sequence | < | 4.30 |
| CCCCCNC(=O)c1ccc2c(=O)[nH]c3c(C(=O)NCC4CCCO4)sc(=S)n3c2c1 (stereo not given) | the protein given by its sequence | = | 4.42 |
| N#Cc1c(N2CCCC2)nc(N)c2c(N)nc(N3CCCC3)cc12 | the protein given by its sequence | = | 6.87 |
| CCCCn1c(SCC(=O)c2ccc(OC)cc2OC)nc2cc(S(N)(=O)=O)ccc21 | the protein given by its sequence | = | 4.34 |
